Entries and their pEC50
SYSTEM_TESTED: HIV-1 integrase multimerization (Human immunodeficiency virus type 1 group M subtype B, UniProt P12497)
Construct: His-tagged and FLAG-tagged integrase (donated by professor Mamuka Kvaratskhelia); gift of Prof; Mamuka Kvaratskhelia (University of Colorado Denver Anschutz Medical Campus)
METHOD: HTRF assay validating activators of HIV-1 integrase multimerization (in vitro binding assay)
EXPERIMENTAL_CONDITIONS: His-tagged and FLAG-tagged integrase 20 nM each; time-resolved FRET; 8-point 1:3 dilution from 53.7 μM, triplicate; active when EC50 < 5 µM
pEC50: −log10 of the molar value.

- COMPOUND: "O=C(NN=Cc1ccccc1F)c1cc(O)c(O)c(O)c1 [compound 3656702]"
  pEC50: 5.31
- COMPOUND: "O=c1c(OC2OC(CO)C(O)C(O)C2O)c(-c2ccc(O)c(O)c2)oc2cc(O)cc(O)c12 (stereo not shown) [compound 5378597]"
  pEC50: 5.87
- COMPOUND: "COc1cccc(C=NNc2nc3c(=O)[nH]c(N)nc3n2C2OC(CO)C(O)C2O)c1O (stereo not shown) [compound 135427812]"
  pEC50: 6.15
- COMPOUND: "O=C(NNC1OC(CO)C(O)C(O)C1O)c1ccc(O)cc1 (stereo not shown) [compound 4137880]"
  pEC50: 5.90
- COMPOUND: "O=c1c2cc(O)c(O)cc2oc2cc(O)c(OC3OC(CO)C(O)C(O)C3O)c(O)c12 (stereo not shown) [compound 46397461]"
  pEC50: 5.90
- COMPOUND: "COc1cccc(/C=N/Nc2nc3c(=O)[nH]c(N)nc3n2C2OC(CO)C(O)C2O)c1O (stereo not shown) [Pubchem CID 135427812]"
  pEC50: 6.15
- COMPOUND: "O=c1cc(-c2ccc(O)c(O)c2)oc2cc(OC3OC(CO)C(O)C(O)C3O)cc(O)c12 (stereo not shown) [compound 5291488]"
  pEC50: 5.44
